Experiment: Quantitative High-Throughput drug screen in 47 multiple myeloma cell lines against the NCATS MIPE library collection: KMS28BM_JCRB cell viability assay (AID 1919874); note: nearly all actives have a fitted effect of over 35% in size
Conditions: CellTiter-Glo ATP, 48 h; series mostly up to 45.8 µM
Records with an inconclusive call do not appear. Calls of active or inactive are those of the source. Calls come from the whole dose curve; as a rule, active = well fitted cell-killing curve with a large enough effect; inconclusive = small, poorly fitted or top-dose-only effect, or effect the other way; inactive = no such curve, though single readings can be large or run the other way.
Hello, when you answer, please use one of the following outcomes: Y (active), N (inactive)

Which outcome was entered for the compound COc1cc2c(cc1Cc1cccc(Cl)c1F)c(=O)c(C(=O)O)cn2[C@H](CO)C(C)C in this test?
Y

Given O=c1[nH]c(=O)n([C@H]2C[C@@H](O)[C@@H](CO)O2)cc1I , state the outcome it received in this test.
N

I'd appreciate the recorded outcome for CCCCn1c(=O)n(Cc2ccccc2F)c(=O)c2[nH]c(Cc3ccc(NC(C)=O)cc3)nc21 from this test.
N

Status in this test for CCN1CCN(c2ccc(Nc3cc(N(C)C(=O)Nc4c(Cl)c(OC)cc(OC)c4Cl)ncn3)cc2)CC1 ?
N

Each compound tested received a call. Report the one for CCCCc1ccc(NS(=O)(=O)c2ccc(C)c(C(=O)N3CCN(c4cccc(C)c4C)CC3)c2)cc1 .
Y

Test call, this compound: C[C@]12CCC3=C4CCC(=O)C=C4CC[C@@H]3[C@H]1CC[C@@]2(O)CC#N
N

Call for entry Cc1ccccc1-n1c(Cn2nc(-c3cccc(O)c3)c3c(N)ncnc32)nc2cccc(C)c2c1=O :
Y

I'd appreciate the recorded outcome for CN1N=C(N)c2cn([C@@H]3O[C@H](COP(=O)(O)O)[C@@H](O)[C@@H]3O)c3ncnc1c23 from this test.
Y

For this compound, state the assay outcome: CNc1nc(Nc2ccc(C(=O)N3CCOCC3)cc2OC)ncc1Cl
N

Hi, sorry to bother you, what did the test record for CCCCC(C)(C)[C@H](O)C=C[C@H]1[C@H](O)CC(=O)[C@H]1CC=CCCCC(=O)O ?
N

How did this test come out for CC(C)[C@H](O)C(=O)N[C@@H](C)C(=O)N[C@@H]1C(=O)N(C)CCc2ccccc21 ?
N

Please state the recorded outcome for this compound: Cc1ccc2c(c1)C(=O)[C@]1(O)CCN(c3ccccc3)C1=N2
Y

Hi, sorry to bother you, what did the test record for N#Cc1c(N(CC(=O)O)CC(=O)O)sc(C(=O)O)c1CC(=O)O ?
N

Assay result, entry COc1ccc(-c2cc(=O)c3c(O)cc(O[C@@H]4O[C@H](CO[C@@H]5O[C@@H](C)[C@H](O)[C@@H](O)[C@@H]5O)[C@@H](O)[C@H](O)[C@@H]4O)cc3o2)cc1O — outcome?
N

Entry CC1CCN(c2cc(N3CCN(C)CC3)ccc2NC(=O)c2cc(C#N)c[nH]2)CC1 : call = ?
N

Recorded call for C[C@]12CC[C@@H]3c4ccc(O)cc4CC[C@H]3[C@H]1[C@@H](O)[C@@H](O)[C@H]2O ?
N

// param item: CC(C)c1onc(-c2c(Cl)cccc2Cl)c1COc1ccc(C=Cc2cccc(C(=O)O)c2)c(Cl)c1 ; yields the recorded call
N

Please state the recorded outcome for this compound: COc1cc2c(cc1OC)CC(=O)N(CCCN(C)C[C@H]1Cc3cc(OC)c(OC)cc31)CC2
N

Each compound tested received a call. Report the one for CCC(C)SSc1ncc[nH]1 (centres undefined) .
Y
